Value source: patent US20180186897A1

Biological target: erythrocytes infected with P. falciparum field isolate 9605
Test: flow cytometry, staining of IEs
property_measured: % parasite recognition (%)
Please state the figure in %; there is no need to write the unit.

Consider the binder MGD33 (antibody) VH: HVQLQESGPGLVKPSETLSLSCAVTGGSITSSKWWTWVRQGPDKGLEWIGKIYHNGTTNYNPSLKSRVAMSVDKSKNQFSLRLTSVTAADTAVYYCATASPFKSHHRTTEKLPRPSISAEPGTVIPLGSRVTFVCRGPVGVQTFRLERETRSTYNDTEDVSQVSPSESEARFRIDSVSEGYAGPYRCVYYKAPKWSEQSDYLDLLVKGEDVTWALTQPQLDPRACPQGDLRMSTDIYCMDVWGKGTTVTVSS VL: AIRLTQSPSSLSASIGDRVTITCRASQDISTYLAWYQQESGKAPRLLIFAASSLQTGVPSRFSGSGSGTDFTLTISGLQSEDFATYYCQQYYCFPPDFGQGTRLDIK and give its measured % parasite recognition.
12.3

Others:
For MGC26 (antibody) VH: EVQLVDSGGGLVQPGGSLRLSCAASGFTFSTYWMTWVRQTPGKGLEWVASIKQDGTERYYVDSVKGRFIISRDNAKNSLYLQMHSLRAEDTAVYYCVRDRFCRDHMHIEEDLPRPSISPEPATVIPLGSHVTIVCRGPVGVETFRLQKESRSLYNDTEDVSQPSPSESEARFRIDSVSEGHGGLYRCLYYKSSKWSEQSDYLEMLVKGEDVTWALFPYCGGDGEESDYYMDVWGKGTTVTVSS VL: DIQLTQSPSTLSASVGDRVTISCRASQRLSRSLAWYQQRPRKAPNLLIYKASPLEIGGPSRFTGSGSGTEFTLTISSLQPDDSATYYCQQYSNYSYSFGQGTKLEIR , what is its reported % parasite recognition?
21.1
